- assay: Dissociation constant, pKa of the compound
- Format: physicochemical
quantity measured: pKa

compound | measured value
FC(F)C1Cc2ccccc2CN1 (racemic) | 6.42
O=[N+]([O-])c1ccc2c(c1)CNC(C(F)F)C2 (racemic) | 5.83
FC(F)C1Cc2ccc(Br)cc2CN1 (racemic) | 6.12
